Origin of values: patent US6462055B2

IC50 ug/ml HCMV reference
system: HCMV recombinant mutant virus (RV145); experiment: microbe, parasite or virus in culture; format: cell-based, human cytomegalovirus; conditions: HCMV

COc1ccccc1C(=O)Nc1ccc(NC(=S)NC(C)c2ccc(F)cc2)cc1 (stereo not drawn) | >0.5 µg/mL

Field request: IC50 ug/ml HCMV | item: `COc1cc(C)c(Cl)cc1NC(=S)Nc1ccc(NC(=O)c2ccccc2F)cc1Cl`
>10 µg/mL

Fill blank: measured IC50 ug/ml HCMV of the compound `O=C(Nc1ccc(NC(=S)NCCc2cccc(Cl)c2)cc1)c1ccccc1F` is ____.
>0.5 µg/mL

Consider the compound COc1cc(OC)c(NC(=S)Nc2ccc(NC(=O)c3ccccc3[S+](C)[O-])cc2)cc1Cl (stereo not drawn) and give its measured IC50 ug/ml HCMV.
>10 µg/mL

Request the reported IC50 ug/ml HCMV associated with `Cc1cc(CCNC(=S)Nc2ccc(NC(=O)c3ccccc3F)cc2)ccc1N(C)C`
>0.5 µg/mL

Consider the compound `CC(=O)Nc1cccc(NC(=S)Nc2ccc(NC(=O)c3ccccc3F)cc2)c1` and give its measured IC50 ug/ml HCMV.
>10 µg/mL

Any idea what its IC50 ug/ml HCMV is? The compound is `Cc1ccc(NC(=S)Nc2ccc(NC(=O)c3ccccc3F)cc2)cc1Cl`
>10 µg/mL

What does the data say about its IC50 ug/ml HCMV? Entry: `O=C(Nc1ccc(NC(=S)NCCc2ccc(F)cc2)cc1)c1ccccc1F`
>0.5 µg/mL

Look up IC50 ug/ml HCMV: `CCOc1ccc(NC(=S)Nc2ccc(NC(=O)c3ccccc3F)cc2)cc1Cl`
>10 µg/mL

Need IC50 ug/ml HCMV of `O=C(CN1CCCCCC1)Nc1ccc(NC(=S)Nc2ccc(NC(=O)c3ccccc3F)cc2)cc1Cl` , thanks.
1 µg/mL

Tell me the measured IC50 ug/ml HCMV of `COc1cc(OC)c(NC(=S)Nc2ccc(NC(=O)c3cccc(OCc4ccccc4)c3)cc2)cc1Cl` , please.
>10 µg/mL

# IC50 ug/ml HCMV lookup, item `COc1cc(OC)c(NC(=S)Nc2ccc(NC(=O)c3ccccc3F)c(Cl)c2)cc1Cl`
>10 µg/mL

Quick check: IC50 ug/ml HCMV of `COc1cc(OC)c(NC(=S)Nc2ccc(NC(=O)c3ccc(F)cc3F)cc2)cc1Cl` ?
>10 µg/mL

I would be grateful if you could share the reported IC50 ug/ml HCMV for `COc1ccc(C(=O)Nc2ccc(NC(=S)Nc3cc(Cl)c(OC)cc3OC)cc2)cc1` .
6 µg/mL

Return reported IC50 ug/ml HCMV; argument: `O=C(Nc1ccc(NC(=S)NCCSc2ccccc2)cc1)c1ccccc1F`
>0.5 µg/mL

Which IC50 ug/ml HCMV reading was recorded for the compound `Nc1ccc(Cl)cc1NC(=S)Nc1ccc(NC(=O)c2ccccc2F)cc1` ?
>10 µg/mL

Which IC50 ug/ml HCMV reading was recorded for the compound `Nc1cccc(NC(=S)Nc2ccc(NC(=O)c3ccccc3F)cc2)c1` ?
5 µg/mL

Please give the measured IC50 ug/ml HCMV for this compound: `CN(c1ccc(NC(=S)Nc2ccc(NC(=O)c3ccccc3F)cc2)cc1Cl)C1CCCCC1`
>10 µg/mL

I'd like to know its IC50 ug/ml HCMV. The compound in question is `COc1cc(OC)c(NC(=S)Nc2ccc(NC(=O)c3ccccc3C)cc2)cc1Cl`
5 µg/mL

Data request, read-out IC50 ug/ml HCMV, for `COc1cc(OC)c(NC(=S)Nc2ccc(NC(=O)c3cccc(C(=O)O)c3)cc2)cc1Cl`
>50 µg/mL

So what does the record say about IC50 ug/ml HCMV for CC(NC(=S)Nc1ccc(NC(=O)c2ccccc2F)cc1)c1cccc(Cl)c1 (stereo not drawn) ?
1.2 µg/mL
